Field: Percent remaining after 2 h incubation. Provide a value for each of the compounds that follow.
Experiment: In vitro plasma stability, human plasma
Type: in vitro ADME
Details: 1.0 µM, 37° C., 2 h
Source text: Human plasma (Bioreclamation, Cat#: BRH470404, male:female=1:1,v:v); Rat plasma (HDB, Cat#: HDB_RsP_20221120, male:female=1:1,v:v); C57 Mouse plasma (HDB, Cat#: HDB_MsP_202201120, male:female=1:1,v:v); Male cynomolgus monkey plasma (RILD, Cat#: MP210107-P). Analytical grade inorganic salts were purchased from Sinopharm Chemical Reagent Co. (Shanghai, China). HPLC grade organic solvents were purchased from Sigma-Aldrich, USA. […]
Give the quantity in %, number only.

Query (compound): `CN(C)CCc1c[nH]c2cccc(OP(=O)(O)O)c12` ; field requested: Percent remaining after 2 h incubation 19.4

Same question, `CN(C)CCc1c[nH]c2cccc(O)c12` this time 97.9

Same question, `CCN(CC)CCOC(=O)c1ccc(N)cc1` this time 0.00

Same question, `COc1ccc([C@@H]2Sc3ccccc3N(CCN(C)C)C(=O)[C@@H]2OC(C)=O)cc1` this time 80.5

Same question, `CC(=O)Oc1cccc2[nH]cc(CCN(C)C)c12` this time 0.00

----------
assay: In vitro plasma stability, monkey plasma; assay type: in vitro ADME; settings: cynomolgus monkey plasma, 1.0 µM, 37° C., 2 h
endpoint: Percent remaining after 2 h incubation (%)
Give the quantity in %, number only.

Query (compound): `CN(C)CCc1c[nH]c2cccc(O)c12` ; field requested: Percent remaining after 2 h incubation 92.8

Same question, `CN(C)CCc1c[nH]c2cccc(OP(=O)(O)O)c12` this time 113

Same question, `CCN(CC)CCOC(=O)c1ccc(N)cc1` this time 0.00

Same question, `CC(=O)Oc1cccc2[nH]cc(CCN(C)C)c12` this time 0.00

Same question, `COc1ccc([C@@H]2Sc3ccccc3N(CCN(C)C)C(=O)[C@@H]2OC(C)=O)cc1` this time 90.5

----------
assay: In vitro plasma stability, rat plasma; type: in vitro ADME; conditions: SD rat plasma, 1.0 µM, 37° C., 2 h
Field: Percent remaining after 2 h incubation. Provide a value for each of the compounds that follow.
Give your result as the value with the unit written after it.

Query (compound): `COc1ccc([C@@H]2Sc3ccccc3N(CCN(C)C)C(=O)[C@@H]2OC(C)=O)cc1` ; field requested: Percent remaining after 2 h incubation 78.8%

Same question, `CN(C)CCc1c[nH]c2cccc(O)c12` this time 86.2%

Same question, `CCN(CC)CCOC(=O)c1ccc(N)cc1` this time 52.0%

Same question, `CC(=O)Oc1cccc2[nH]cc(CCN(C)C)c12` this time 0.00%

Same question, `CN(C)CCc1c[nH]c2cccc(OP(=O)(O)O)c12` this time 113%

----------
test: In vitro plasma stability, human plasma; format: in vitro ADME; settings: both sexes, 37° C., pH 7.4, read-out: T½ (converted)
endpoint: half-life at 1 µM (h)
Give the quantity in h, number only.

Query (molecule): `COc1ccc([C@@H]2Sc3ccccc3N(CCN(C)C)C(=O)[C@@H]2OC(C)=O)cc1` ; field requested: half-life at 1 µM 6.4

Same question, `CN(C)CCc1c[nH]c2cccc(OP(=O)(O)O)c12` this time 0.82

Same question, `CN(C)CCc1c[nH]c2cccc(O)c12` this time 20.5

----------
assay: In vitro plasma stability, mouse plasma; assay type: in vitro ADME; conditions: both sexes, C57 mouse plasma, 37° C., pH 7.4, read-out: T½ (converted)
Field: half-life at 1 µM. Provide a value for each of the compounds that follow.
Give the quantity in h, number only.

Query (compound): `CN(C)CCc1c[nH]c2cccc(OP(=O)(O)O)c12` ; field requested: half-life at 1 µM 91.5

Same question, `COc1ccc([C@@H]2Sc3ccccc3N(CCN(C)C)C(=O)[C@@H]2OC(C)=O)cc1` this time 10.6

Same question, `CN(C)CCc1c[nH]c2cccc(O)c12` this time 14.5

----------
assay: In vitro plasma stability, monkey plasma; type: in vitro ADME; details: male, cynomolgus monkey plasma, 37° C., pH 7.4, read-out: T½ (converted)
endpoint: half-life at 1 µM (h)
Give the quantity in h, number only.

Query (compound): CN(C)CCc1c[nH]c2cccc(O)c12 [Psilocin] ; field requested: half-life at 1 µM 17.9

Same question, COc1ccc([C@@H]2Sc3ccccc3N(CCN(C)C)C(=O)[C@@H]2OC(C)=O)cc1 [Diltiazem] this time 12.8

----------
Field: Percent remaining after 2 h incubation. Provide a value for each of the compounds that follow.
test: In vitro plasma stability, mouse plasma; format: in vitro ADME; details: C57 mouse plasma, 1.0 µM, 37° C., 2 h
Give the quantity in %, number only.

Query (compound): `CN(C)CCc1c[nH]c2cccc(O)c12` ; field requested: Percent remaining after 2 h incubation 89.2

Same question, `CC(=O)Oc1cccc2[nH]cc(CCN(C)C)c12` this time 0.00

Same question, `CCN(CC)CCOC(=O)c1ccc(N)cc1` this time 0.00

Same question, `CN(C)CCc1c[nH]c2cccc(OP(=O)(O)O)c12` this time 93.2

Same question, `COc1ccc([C@@H]2Sc3ccccc3N(CCN(C)C)C(=O)[C@@H]2OC(C)=O)cc1` this time 87.9
